The compounds below each have a reported IC50 tested on Proto-oncogene tyrosine-protein kinase receptor Ret (Homo sapiens); the values come from various publications.

These recorded examples may help you get a feel for the data.
CC1(Oc2ccc(NC(=O)Nc3ccc(-c4ccc(=O)[nH]c4)cc3)cc2C(F)(F)F)COC1    < 100 nM
Cc1cc([C@@H]2CC[C@](C)(C(=O)N[C@@H](C)c3ccc(-n4cc(F)cn4)nc3)C2)nc(Nc2cc(C)[nH]n2)n1 (single isomer, unassigned)    < 10 nM
Cn1ccc(-c2cc(-c3cnc(N4C[C@@H]5C[C@@](C)(NC(=O)c6ncccc6Cl)C[C@@H]5C4)cn3)c3c(C#N)cnn3c2)n1    ≤ 10 nM
CC(C)(O)COc1cc(-c2cnc(N3C4CC5CC3CC(O)(C5)C4)cn2)c2c(C#N)cnn2c1    10 to 50 nM
CNc1cc(Oc2ccc(NC(=O)Nc3cc(CN4CCN(C(C)C)CC4)cc(C(F)(F)F)c3)cc2)ncn1    960 nM

Please state recorded IC50 (tested on Proto-oncogene tyrosine-protein kinase receptor Ret (Homo sapiens)) of `CC(C)CC(=O)NC[C@@H]1[C@H]2CN(c3ccc(-c4cc(-c5cnn(C)c5)cn5ncc(C#N)c45)cn3)C[C@@H]12`
≤ 10 nM

Lab request: please report IC50 under test system Proto-oncogene tyrosine-protein kinase receptor Ret (Homo sapiens) for `CC1(Oc2ccc(NC(=O)Nc3ccc(-c4c[nH]c(=O)c5cn[nH]c45)cc3F)cc2C(F)(F)F)COC1`
< 100 nM

I'm curious: which IC50 was measured for `Cc1c(O)cccc1C(=O)c1c[nH]c2ncc(-c3cccnc3)cc12` tested on Proto-oncogene tyrosine-protein kinase receptor Ret (Homo sapiens)?
≤ 10000 nM

Give the reported IC50 for `Nc1ncnc2c1c(-c1ccc(Oc3ccccc3)cc1)nn2C[C@H]1SSC[C@H]1O` (system: Proto-oncogene tyrosine-protein kinase receptor Ret (Homo sapiens)).
1000 to 10000 nM

Hi! What's the reported IC50 for COC(c1ccc(Br)cc1)c1c[nH]c2ncc(-c3cccc(S(C)(=O)=O)c3)cc12 (centres unmarked) on Proto-oncogene tyrosine-protein kinase receptor Ret (Homo sapiens)?
≤ 10000 nM

Enter reported IC50 observed with Proto-oncogene tyrosine-protein kinase receptor Ret (Homo sapiens) for `Cc1cc(Nc2cc(C)[nH]n2)nc([C@H]2C[C@H](C(=O)NCc3ccc(-n4cccn4)nc3)C2)c1`
< 1 nM
